Measured IC50 by item
- Tested on: MCF7
- assay text: Cytotoxicity against human MCF7 cells after 72 hrs by MTT assay
- Type: functional, cell-based
- cond: MCF7, 72 h
Field note: include the unit after the figure.

// below: answered molecules
Nc1ccn([C@@H]2O[C@H](CO)[C@@H](O)C2(F)F)c(=O)n1 : 0.15 µM
CC1=NOC(=O)/C1=C/c1c(COCc2ccc(C(F)(F)F)cc2)n(C)c2ccc(F)cc12 : 7.72 µM

Consider the molecule shown here: "Cn1c(COCc2ccc(C(F)(F)F)cc2)c(/C=C2/C(=O)ON=C2C(F)(F)F)c2cc(F)ccc21" What is its recorded IC50?
5.51 µM

* * *

- Tested on: HEK293
- assay text: Cytotoxicity against HEK293 cells after 72 hrs by MTT assay
- Assay type: cell-based
- cond: human, hek293, 72 h
measured endpoint: Activity

CC1=NOC(=O)/C1=C/c1c(COCc2cn(Cc3ccc(OC(F)(F)F)cc3)nn2)n(C)c2ccc(F)cc12 : Non-toxic
CC1=NOC(=O)/C1=C/c1c(C(=O)NCc2ccc(F)cc2)n(C)c2ccc(F)cc12 : Non-toxic
CC1=NOC(=O)/C1=C/c1c(C(=O)NCc2ccc(C)cc2)n(C)c2ccc(F)cc12 : Non-toxic
CC1=NOC(=O)/C1=C/c1c(COCc2ccc(C(F)(F)F)cc2)n(C)c2ccc(F)cc12 : Non-toxic
CC1=NOC(=O)/C1=C/c1c(C(=O)Nc2ccc(OC(F)(F)F)cc2)n(C)c2ccc(F)cc12 : Non-toxic

Consider the molecule shown here: "Cn1c(COCc2cn(Cc3ccc(C#N)cc3)nn2)c(/C=C2/C(=O)ON=C2C(F)(F)F)c2cc(F)ccc21" What is its recorded Activity?
Non-toxic

"CC1=NOC(=O)/C1=C/c1c(C(=O)N2CCOCC2)n(C)c2ccc(F)cc12" ?
Non-toxic

"Cn1c(COCc2cn(Cc3ccc([N+](=O)[O-])cc3)nn2)c(/C=C2/C(=O)ON=C2C(F)(F)F)c2cc(F)ccc21" ?
Non-toxic

* * *

As a worked illustration, we turn to IC50 data collected for NAD-dependent protein deacetylase sirtuin-1 (Homo sapiens).
Record the value in µM, omitting the unit from your answer.

Cn1c(COCc2ccc(C(F)(F)F)cc2)c(/C=C2/C(=O)ON=C2C(F)(F)F)c2cc(F)ccc21 : 37.4

Consider the compound shown here: "CC1=NOC(=O)/C1=C/c1c(COCc2ccc(C(F)(F)F)cc2)n(C)c2ccc(F)cc12" What is its recorded IC50?
35.2

* * *

- assay text: Cytotoxicity against HEK293 cells after 72 hrs by MTT assay
- Type: cell-based
- cond: human, HEK293 cells; read-out: GI
Measured inhibition at 72 h by item
Record the value in %, omitting the unit from your answer.

CCN1CCN(C(=O)c2c(/C=C3/C(=O)ON=C3C(F)(F)F)c3cc(F)ccc3n2C)CC1 : 30

Please look at the following compound next.
Consider the compound shown here: "CC1=NOC(=O)/C1=C/c1c(COCc2cn(Cc3ccc(C(F)(F)F)cc3)nn2)n(C)c2ccc(F)cc12" What is its recorded inhibition at 72 h?
30
